Data origin: patent US6525059B1

# melting point per record follows
reported property: melting point

# molecule, data value
data = [
    ("COCCSc1[nH]nc(-c2ccc(Cl)cc2)c1-c1ccncc1", "189.2 to 190.2 °C"),
    ("CN(C)c1n[nH]c(-c2ccc(F)cc2)c1-c1ccncc1", "245 to 247 °C"),
    ("O.O.O=C(O)CCC(=O)N1CCN(c2n[nH]c(-c3ccc(Cl)cc3)c2-c2ccncc2)CC1 (hydrate or solvate) [A-321 (dihydrate)]", "281 to 283 °C (dec.)"),
    ("CNc1nccc(-c2c[nH]nc2-c2ccc(F)cc2)n1", "217 to 218 °C"),
    ("CC(C)(C)OC(=O)N1CCC([S+]([O-])c2[nH]nc(-c3ccc(Cl)cc3)c2-c2ccncc2)CC1 (centres unmarked)", "215.8 to 215.9 °C"),
    ("Clc1ccc(-c2n[nH]c(SCC3OCCO3)c2-c2ccncc2)cc1", "197 to 198.2 °C"),
    ("Fc1ccc(-c2n[nH]cc2-c2ccnc(Cl)n2)cc1", "204 to 205 °C"),
    ("C[S+]([O-])c1[nH]nc(-c2ccc(F)cc2)c1-c1ccncc1 (centres unmarked)", "262.9 °C"),
]

###

Target: human p38 kinase alpha (Homo sapiens)
Construct: The coding region of the human p38a cDNA was obtained by PCR-amplification from RNA isolated from the human monocyte cell line THP.1; GST (N); made in house; host or cells: E. coli DH10B
Sequence (Q16539 whole entry): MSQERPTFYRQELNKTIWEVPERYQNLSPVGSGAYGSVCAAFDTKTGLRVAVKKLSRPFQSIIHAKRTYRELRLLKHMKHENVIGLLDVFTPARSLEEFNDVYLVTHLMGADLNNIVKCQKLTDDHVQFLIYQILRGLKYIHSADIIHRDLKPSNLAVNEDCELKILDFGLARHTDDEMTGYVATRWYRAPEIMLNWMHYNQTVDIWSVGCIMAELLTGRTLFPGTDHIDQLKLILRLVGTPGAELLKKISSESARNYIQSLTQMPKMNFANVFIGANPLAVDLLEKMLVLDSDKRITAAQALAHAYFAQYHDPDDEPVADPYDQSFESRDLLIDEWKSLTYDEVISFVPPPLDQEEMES
Experiment: p38 kinase in vitro assay, phosphorylation of biotinylated PHAS-I with gamma 32P-ATP
Format: biochemical
Conditions: @ 1.0 uM
# P38 alpha kinase % inhib @ conc. per record follows

# compound, target, P38 alpha kinase % inhib @ conc. [% @ 1.0 uM]
records = [
    ("N#Cc1ccc(C(=O)NCc2[nH]nc(-c3ccc(F)cc3)c2-c2ccncc2)cc1", "human p38 kinase alpha (Homo sapiens)", 53.0),
    ("COC(=O)C(=O)NCc1[nH]nc(-c2ccc(F)cc2)c1-c1ccncc1", "human p38 kinase alpha (Homo sapiens)", 89.0),
    ("O=C(NCc1[nH]nc(-c2ccc(F)cc2)c1-c1ccncc1)c1cccc2ccccc12", "human p38 kinase alpha (Homo sapiens)", 91.0),
    ("O=C(NCc1[nH]nc(-c2ccc(F)cc2)c1-c1ccncc1)c1cc(C(F)(F)F)ccc1F", "human p38 kinase alpha (Homo sapiens)", 73),
    ("O=C(NCc1[nH]nc(-c2ccc(F)cc2)c1-c1ccncc1)C1CCCN1C(=O)C(F)(F)F (centres unmarked)", "human p38 kinase alpha (Homo sapiens)", 96),
    ("O=C(NCc1[nH]nc(-c2ccc(F)cc2)c1-c1ccncc1)[C@@H]1C[C@@H]1c1ccccc1", "human p38 kinase alpha (Homo sapiens)", 71.1),
    ("O=C(NCc1[nH]nc(-c2ccc(F)cc2)c1-c1ccncc1)C(F)(F)C(F)(F)C(F)(F)F", "human p38 kinase alpha (Homo sapiens)", 96.0),
    ("CCC(C(=O)NCc1[nH]nc(-c2ccc(F)cc2)c1-c1ccncc1)c1ccccc1 (centres unmarked)", "human p38 kinase alpha (Homo sapiens)", 94.0),
    ("O=C(CCC1CC=CC1)NCc1[nH]nc(-c2ccc(F)cc2)c1-c1ccncc1", "human p38 kinase alpha (Homo sapiens)", 71.0),
    ("O=C(NCc1[nH]nc(-c2ccc(F)cc2)c1-c1ccncc1)c1ccc(OC(F)(F)F)cc1", "human p38 kinase alpha (Homo sapiens)", 69.0),
    ("C=CCOC(=O)NCc1[nH]nc(-c2ccc(F)cc2)c1-c1ccncc1", "human p38 kinase alpha (Homo sapiens)", 97.0),
]
